test system: DeltatarO mutant; experiment: S. aureus survival, RN4220 and DeltatarO strains – OD600, teichoic acid synthesis inhibitors, primary screen (AID 463173); details: S. aureus RN4220 wild type/DeltatarO growth, OD600, 18 h, stronger effect = lower value, screened at 18.75 µg/mL (by protocol)
Screen size: about 52,000 compounds; about 4,300 (8.3%) were called active. The entries come from a sample that favours actives as a whole.
Would you mind sorting the entries by survival according to these classes? 1 = under 50%, 2 = from 50% up to 80%, 3 = 80% and over

compound: CCc1ccc(C2c3c(-c4cc(C)ccc4O)n[nH]c3C(=O)N2Cc2cccnc2)cc1 (stereo unspecified)
target under test: DeltatarO mutant
category label: 2
//
compound: COCCNC(=O)C(=O)NCC(c1cccnc1)N1CCN(c2ccccc2OC)CC1 (stereo unspecified)
target under test: DeltatarO mutant
category label: 2
//
compound: Cc1ccc(C)c(NC(=O)C(=O)NCC(c2cccnc2)N2CCN(c3ccc(F)cc3)CC2)c1 (stereo unspecified)
target under test: DeltatarO mutant
category label: 1
//
compound: CCc1cccc(NC(=O)CCNS(=O)(=O)c2cccc3nonc23)c1
target under test: DeltatarO mutant
category label: 3
//
compound: COC(=O)c1ccc(NC(=O)CCNS(=O)(=O)c2cccc3nsnc23)cc1
target under test: DeltatarO mutant
category label: 2
//
compound: Cc1cc(Br)ccc1NC(=O)CCS(=O)(=O)c1cccc2nonc12
target under test: DeltatarO mutant
category label: 3
//
compound: CCOC(=O)c1cccc(NC(=O)CCNS(=O)(=O)c2cccc3nonc23)c1
target under test: DeltatarO mutant
category label: 1
//
compound: CCOCCCN1C(=O)c2[nH]nc(-c3ccccc3O)c2C1c1ccc(CC)cc1 (stereo unspecified)
target under test: DeltatarO mutant
category label: 1
//
compound: O=C(c1ccc(Cl)cc1)C1CCN(C(=O)N2CCOCC2)CC1
target under test: DeltatarO mutant
category label: 2
//
compound: CCOc1ccc(NC(=O)CCNS(=O)(=O)c2cccc3nsnc23)cc1
target under test: DeltatarO mutant
category label: 2
//
compound: CCOCCOC(=O)c1ccc(NC(=O)/C=C/c2ccc(OC)c(OC)c2)cc1
target under test: DeltatarO mutant
category label: 3
//
compound: CCc1ccc(C2c3c(-c4ccccc4O)n[nH]c3C(=O)N2Cc2ccncc2)cc1 (stereo unspecified)
target under test: DeltatarO mutant
category label: 1
//
compound: CCCCOc1ccc(C(=O)N(Cc2ccco2)Cc2ccco2)cc1
target under test: DeltatarO mutant
category label: 3
//
compound: COC(=O)NCC(c1cccnc1)N1CCN(c2ccc(F)cc2)CC1 (stereo unspecified)
target under test: DeltatarO mutant
category label: 3
//
compound: CCN(CC)CCCNC(=O)c1ccc2c(c1)sc1nc(-c3ccc(C)cc3)cn12
target under test: DeltatarO mutant
category label: 1
//
compound: Cc1ccc(NC(=O)CCS(=O)(=O)c2cccc3nonc23)cc1Cl
target under test: DeltatarO mutant
category label: 2
//
compound: CCOc1cc(C2c3c(-c4ccccc4O)n[nH]c3C(=O)N2Cc2cccnc2)ccc1O (stereo unspecified)
target under test: DeltatarO mutant
category label: 3
//
compound: CCc1ccc(N(CC)C(=O)Cn2c(=O)oc3ccccc32)cc1
target under test: DeltatarO mutant
category label: 2
//
compound: CN(C)CCNC(=O)C(=O)NCC(c1cccnc1)N1CCN(c2ccccc2)CC1 (stereo unspecified)
target under test: DeltatarO mutant
category label: 2
//
compound: CN(C)CCNC(=O)C(=O)NCC(c1cccnc1)N1CCN(c2ccc(F)cc2)CC1 (stereo unspecified)
target under test: DeltatarO mutant
category label: 2
//
compound: CCOC(=O)c1c(C)[nH]c(CCC(=O)NCc2ccc(F)cc2)c1C
target under test: DeltatarO mutant
category label: 3
//
compound: Cc1cc(NC(=O)CCNS(=O)(=O)c2cccc3nsnc23)ccc1Br
target under test: DeltatarO mutant
category label: 3
//
compound: Cc1cc(C)cc(NC(=O)C(=O)NCC(c2cccnc2)N2CCN(c3ccccc3)CC2)c1 (stereo unspecified)
target under test: DeltatarO mutant
category label: 2
//
compound: CCc1cccc(NC(=O)c2ccc(NC(=O)N3CCSc4ncccc43)cc2)c1
target under test: DeltatarO mutant
category label: 1
//
compound: CCN(CC)CCNC(=O)C(=O)NCC(c1cccnc1)N1CCN(c2ccccc2)CC1 (stereo unspecified)
target under test: DeltatarO mutant
category label: 3
//
compound: Cc1cccc(-c2cc(-c3ccccc3)nc(SCC(=O)Nc3ccccc3)c2C#N)c1
target under test: DeltatarO mutant
category label: 2
//
compound: COc1ccccc1N1CCN(C(CNC(=O)C(=O)NCCN(C)C)c2cccnc2)CC1 (stereo unspecified)
target under test: DeltatarO mutant
category label: 2
//
compound: COc1ccc(Cl)cc1C(=O)Nc1sc2c(c1C(=O)OC(C)C)CCCC2
target under test: DeltatarO mutant
category label: 2
//
compound: Cc1cc(Br)ccc1NC(=O)CCNS(=O)(=O)c1cccc2nonc12
target under test: DeltatarO mutant
category label: 1
//
compound: Cc1ccc(CNC(=O)C(=O)NCC(c2cccnc2)N2CCN(c3ccc(F)cc3)CC2)cc1 (stereo unspecified)
target under test: DeltatarO mutant
category label: 2
//
compound: CC(C)Oc1ccc(CNC(=O)c2ccc(NC(=O)N3CCSc4ncccc43)cc2)cc1
target under test: DeltatarO mutant
category label: 1
//
compound: Cc1ccc(NC(=O)CCS(=O)(=O)c2cccc3nonc23)c(C)c1
target under test: DeltatarO mutant
category label: 3
//
compound: COc1cccc(C(=O)NCCSc2c(-c3ccc(F)cc3)[nH]c3ccccc23)c1OC
target under test: DeltatarO mutant
category label: 2
//
compound: COc1ccc(OC)c(/C=C/C(=O)Nc2ccc(C(=O)OCCC(C)C)cc2)c1
target under test: DeltatarO mutant
category label: 1
//
compound: CCOc1ccccc1NC(=O)C(=O)NCC(c1cccnc1)N1CCN(c2ccccc2)CC1 (stereo unspecified)
target under test: DeltatarO mutant
category label: 2
//
compound: Cc1nn(CCCC(=O)Nc2ccccc2C(F)(F)F)c(=O)c2c1sc1ccccc12
target under test: DeltatarO mutant
category label: 2
//
compound: Cc1ccccc1NC(=O)c1ccc(NC(=O)N2CCSc3ncccc32)cc1
target under test: DeltatarO mutant
category label: 1
